Provenance of the data: patent US4608390A

For each entry below, report its log10 of IC50 value.
tgt: 5-lipoxygenase (Rattus norvegicus, UniProt P12527)
Construct: 20,000×G supernatant from 7.5×10^6 homogenized RBL-1 cells; endogenous in cells
Sequence (P12527 1-673): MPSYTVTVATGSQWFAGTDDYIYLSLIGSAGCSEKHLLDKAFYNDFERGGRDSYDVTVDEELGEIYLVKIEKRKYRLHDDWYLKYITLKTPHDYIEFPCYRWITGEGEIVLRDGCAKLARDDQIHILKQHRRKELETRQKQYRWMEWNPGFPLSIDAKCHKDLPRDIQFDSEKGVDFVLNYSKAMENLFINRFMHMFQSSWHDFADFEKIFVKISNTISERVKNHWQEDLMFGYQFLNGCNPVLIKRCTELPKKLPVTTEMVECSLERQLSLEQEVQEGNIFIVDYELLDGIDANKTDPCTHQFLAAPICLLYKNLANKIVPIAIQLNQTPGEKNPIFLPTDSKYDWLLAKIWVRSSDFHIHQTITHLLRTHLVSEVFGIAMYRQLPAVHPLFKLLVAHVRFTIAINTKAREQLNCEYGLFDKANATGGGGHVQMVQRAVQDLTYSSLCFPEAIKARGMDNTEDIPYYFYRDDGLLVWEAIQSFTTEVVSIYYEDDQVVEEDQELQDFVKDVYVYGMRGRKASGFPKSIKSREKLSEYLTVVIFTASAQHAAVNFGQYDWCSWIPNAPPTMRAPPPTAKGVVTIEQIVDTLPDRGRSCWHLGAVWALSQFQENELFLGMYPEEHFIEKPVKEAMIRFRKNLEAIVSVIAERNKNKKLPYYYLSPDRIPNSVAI
method_description: 5-Lipoxygenase IC50 determination (20,000×G supernatant of homogenized RBL-1 cells, radiolabeled arachidonic acid)
study_conditions: RBL-1 cell 20,000×G supernatant
Quick note: numbers are log10 of IC50, with µM as the unit.

Input line: Would you mind telling me what log10 of IC50 value was observed for CC(C)N(O)C(=O)C=Cc1ccc2ccccc2c1 ?
Output line: -0.82

Input line: Would you mind telling me what log10 of IC50 value was observed for O=C(CCC/C=C\c1ccc2ccccc2c1)NO [Example 17, Z-6-(2-naphthyl)hex-5-enohydroxamic acid] ?
Output line: 0.20

Input line: Would you mind telling me what log10 of IC50 value was observed for O=C(C=Cc1ccc2ccccc2c1)N(O)c1ccccc1 ?
Output line: -0.70

Input line: Would you mind telling me what log10 of IC50 value was observed for CN(O)C(=O)C=Cc1cccc2ccccc12 ?
Output line: -0.70

Input line: Would you mind telling me what log10 of IC50 value was observed for CCCCCC=Cc1ccc2ccc(C=CC(=O)N(C)O)cc2c1 ?
Output line: -0.29

Input line: Would you mind telling me what log10 of IC50 value was observed for O=C(CCc1ccc2ccccc2c1)NO [Example 18, 3-(2-naphthyl)propiohydroxamic acid] ?
Output line: 0.99

Input line: Would you mind telling me what log10 of IC50 value was observed for CN(O)C(=O)C=Cc1ccc([N+](=O)[O-])c2ccccc12 ?
Output line: -0.89

Input line: Would you mind telling me what log10 of IC50 value was observed for CN(O)C(=O)C=Cc1ccc2ccccc2c1 ?
Output line: -0.59

Input line: Would you mind telling me what log10 of IC50 value was observed for Cc1ccc2ccc(CCC(=O)NO)cc2c1 ?
Output line: 0.46

Input line: Would you mind telling me what log10 of IC50 value was observed for O=C(C=Cc1ccc2ccccc2c1)N(O)C1CCCCC1 ?
Output line: -0.59

###

For each entry below, report its inhibition at 100 µM value.
tgt: 15-lipoxygenase (Glycine max, UniProt P08170)
Construct: 15-lipoxygenase obtained from soybean; from tissue; host or cells: soybean
Sequence (P08170 whole entry): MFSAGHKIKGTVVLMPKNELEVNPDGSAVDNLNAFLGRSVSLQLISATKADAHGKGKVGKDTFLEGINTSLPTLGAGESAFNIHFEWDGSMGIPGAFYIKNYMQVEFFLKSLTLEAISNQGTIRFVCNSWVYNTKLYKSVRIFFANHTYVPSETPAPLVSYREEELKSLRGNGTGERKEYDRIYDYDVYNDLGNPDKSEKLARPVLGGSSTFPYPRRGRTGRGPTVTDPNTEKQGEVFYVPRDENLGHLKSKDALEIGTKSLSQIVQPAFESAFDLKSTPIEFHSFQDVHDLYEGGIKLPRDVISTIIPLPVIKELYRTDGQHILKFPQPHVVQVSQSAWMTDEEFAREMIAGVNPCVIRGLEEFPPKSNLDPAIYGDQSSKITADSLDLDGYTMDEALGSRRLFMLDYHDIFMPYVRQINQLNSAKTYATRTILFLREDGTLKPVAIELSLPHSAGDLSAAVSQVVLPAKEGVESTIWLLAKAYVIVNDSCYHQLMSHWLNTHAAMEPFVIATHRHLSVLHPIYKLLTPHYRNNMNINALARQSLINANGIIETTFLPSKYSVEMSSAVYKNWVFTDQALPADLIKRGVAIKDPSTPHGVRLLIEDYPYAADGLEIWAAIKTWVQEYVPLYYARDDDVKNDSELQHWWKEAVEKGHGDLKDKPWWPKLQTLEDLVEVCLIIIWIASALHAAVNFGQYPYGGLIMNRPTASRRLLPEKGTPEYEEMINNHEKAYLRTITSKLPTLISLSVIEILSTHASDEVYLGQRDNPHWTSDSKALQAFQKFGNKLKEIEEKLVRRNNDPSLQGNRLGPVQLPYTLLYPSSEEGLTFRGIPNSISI
method_description: 15-lipoxygenase inhibition (15-lipoxygenase obtained from soybean)
Type: biochemical
study_conditions: read-out: % Inhibition at Indicated Concentration, 15-lipoxygenase, 100 μM
Reply with just the number (in %).

Input line: Would you mind telling me what inhibition at 100 µM value was observed for CC(=Cc1ccc2ccccc2c1)C(=O)NO ?
Output line: 100

Input line: Would you mind telling me what inhibition at 100 µM value was observed for CN(O)C(=O)C(=Cc1ccc2ccccc2c1)c1ccccc1 ?
Output line: 62

Input line: Would you mind telling me what inhibition at 100 µM value was observed for CC(C)N(O)C(=O)C=Cc1ccc2ccccc2c1 ?
Output line: 63

Input line: Would you mind telling me what inhibition at 100 µM value was observed for CCCCCC=Cc1ccc2ccc(C=CC(=O)N(C)O)cc2c1 ?
Output line: 65

###

tgt: 12-lipoxygenase (Homo sapiens, UniProt P18054)
Construct: 12-lipoxygenase obtained from human platelets; from tissue; host or cells: human platelets
Sequence (P18054 whole entry): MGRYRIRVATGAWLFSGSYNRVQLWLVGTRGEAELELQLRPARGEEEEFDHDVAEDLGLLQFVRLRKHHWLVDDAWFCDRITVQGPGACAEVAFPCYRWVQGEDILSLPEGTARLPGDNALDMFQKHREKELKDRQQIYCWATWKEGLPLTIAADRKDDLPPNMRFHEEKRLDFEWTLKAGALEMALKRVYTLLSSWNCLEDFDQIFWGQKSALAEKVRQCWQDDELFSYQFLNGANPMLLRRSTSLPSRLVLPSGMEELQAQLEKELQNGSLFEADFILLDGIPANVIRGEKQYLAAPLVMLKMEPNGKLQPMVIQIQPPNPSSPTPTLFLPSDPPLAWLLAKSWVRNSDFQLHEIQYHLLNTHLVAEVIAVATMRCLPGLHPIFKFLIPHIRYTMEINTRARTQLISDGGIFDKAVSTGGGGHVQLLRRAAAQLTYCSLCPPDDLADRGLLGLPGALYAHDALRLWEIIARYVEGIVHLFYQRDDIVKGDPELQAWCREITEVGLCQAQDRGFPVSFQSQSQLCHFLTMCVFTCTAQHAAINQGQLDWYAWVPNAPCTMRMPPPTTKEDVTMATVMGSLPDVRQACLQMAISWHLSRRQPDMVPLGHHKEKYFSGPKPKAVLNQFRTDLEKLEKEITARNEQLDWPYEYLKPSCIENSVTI
method_description: 12-lipoxygenase inhibition (12-lipoxygenase obtained from human platelets)
Format: biochemical
study_conditions: read-out: % Inhibition at Indicated Concentration, 12-lipoxygenase, 100 μM
readout: inhibition at 100 µM (%)
Reply with just the number (in %).

Input line: Would you mind telling me what inhibition at 100 µM value was observed for O=C(C=Cc1ccc2ccccc2c1)NO [Example 1, 3-(2-naphthyl)acrylohydroxamic acid] ?
Output line: 100

Input line: Would you mind telling me what inhibition at 100 µM value was observed for CN(O)C(=O)C=Cc1cccc2ccccc12 ?
Output line: 100

Input line: Would you mind telling me what inhibition at 100 µM value was observed for CC(C)N(O)C(=O)C=Cc1ccc2ccccc2c1 ?
Output line: 84

Input line: Would you mind telling me what inhibition at 100 µM value was observed for CN(O)C(=O)C=Cc1cc2ccccc2cc1[N+](=O)[O-] ?
Output line: 97

Input line: Would you mind telling me what inhibition at 100 µM value was observed for Cc1ccc2ccc(CCC(=O)NO)cc2c1 ?
Output line: 99

Input line: Would you mind telling me what inhibition at 100 µM value was observed for CCCCCC=Cc1ccc2ccc(C=CC(=O)N(C)O)cc2c1 ?
Output line: 98

###

tgt: 15-lipoxygenase (Glycine max)
Construct: 15-lipoxygenase obtained from soybean; from tissue; host or cells: soybean
method_description: 15-lipoxygenase inhibition (15-lipoxygenase obtained from soybean)
Assay type: biochemical
study_conditions: read-out: % Inhibition at Indicated Concentration, 15-lipoxygenase, 10 μM
readout: inhibition at 10 µM (%)
Reply with just the number (in %).

Input line: Would you mind telling me what inhibition at 10 µM value was observed for O=C(C=Cc1ccc2ccccc2c1)NO [Example 1, 3-(2-naphthyl)acrylohydroxamic acid] ?
Output line: 2

Input line: Would you mind telling me what inhibition at 10 µM value was observed for CN(O)C(=O)C=Cc1ccc2ccccc2c1 ?
Output line: 43

Input line: Would you mind telling me what inhibition at 10 µM value was observed for CN(O)C(=O)C(=Cc1ccc2ccccc2c1)c1ccccc1 ?
Output line: 38

Input line: Would you mind telling me what inhibition at 10 µM value was observed for O=C(CCc1ccc2ccccc2c1)NO [Example 18, 3-(2-naphthyl)propiohydroxamic acid] ?
Output line: 12

Input line: Would you mind telling me what inhibition at 10 µM value was observed for CN(O)C(=O)C=Cc1cccc2ccccc12 ?
Output line: 29

###

tgt: 15-lipoxygenase (Glycine max, UniProt P08170)
Construct: 15-lipoxygenase obtained from soybean; from tissue; host or cells: soybean
method_description: 15-lipoxygenase inhibition (15-lipoxygenase obtained from soybean)
Format: biochemical
study_conditions: read-out: % Inhibition at Indicated Concentration, 15-lipoxygenase, 10 μM
readout: inhibition at 10 µM (%)
Reply with just the number (in %).

Input line: Would you mind telling me what inhibition at 10 µM value was observed for O=C(C=Cc1ccc2ccccc2c1)N(O)c1ccccc1 ?
Output line: 22

Input line: Would you mind telling me what inhibition at 10 µM value was observed for CC(=Cc1ccc2ccccc2c1)C(=O)NO ?
Output line: 45

Input line: Would you mind telling me what inhibition at 10 µM value was observed for CC(=Cc1ccc2ccccc2c1)C(=O)N(C)O ?
Output line: 37

###

tgt: 12-lipoxygenase (Homo sapiens, UniProt P18054)
Construct: 12-lipoxygenase obtained from human platelets; from tissue; host or cells: human platelets
method_description: 12-lipoxygenase inhibition (12-lipoxygenase obtained from human platelets)
Format: biochemical
study_conditions: read-out: % Inhibition at Indicated Concentration, 12-lipoxygenase, 10 μM
inhibition at 10 µM below 80% gives criterion not met; inhibition at 10 µM at or above it gives criterion met.

Input line: Given CN(O)C(=O)C=Cc1ccc2ccccc2c1 , state whether its inhibition at 10 µM is at least 80%.
Output line: criterion met

Input line: Given CCCCCC=Cc1ccc2ccc(C=CC(=O)N(C)O)cc2c1 , state whether its inhibition at 10 µM is at least 80%.
Output line: criterion met

Input line: Given O=C(C=Cc1ccc2ccccc2c1)NO [Example 1, 3-(2-naphthyl)acrylohydroxamic acid] , state whether its inhibition at 10 µM is at least 80%.
Output line: criterion met

Input line: Given O=C(C=Cc1ccc2ccccc2c1)N(O)C1CCCCC1 , state whether its inhibition at 10 µM is at least 80%.
Output line: criterion not met

Input line: Given CC(C)N(O)C(=O)C=Cc1ccc2ccccc2c1 , state whether its inhibition at 10 µM is at least 80%.
Output line: criterion not met

Input line: Given CN(O)C(=O)C(=Cc1ccc2ccccc2c1)c1ccc(Cl)cc1 , state whether its inhibition at 10 µM is at least 80%.
Output line: criterion met
